Test system: UACC-257 melanoma
assay-text: NCI-60 one-dose screen, 48 h (100 = growth as untreated, 0 = no growth, -100 = all killed)
condition-label: 10 µM unless noted
The panel holds about 83,000 compounds, 20% with a hit somewhere; the sample as a whole holds those more often.
Reported growth values are given for each entry in this list.

[
  {
    "compound": "CN1C(=O)N(C)C2C1NN=c1s/c(=C\\C=C\\c3ccccc3)c(=O)n12 (centres undefined)",
    "system-name": "UACC-257 melanoma",
    "growth / %": 73.4
  },
  {
    "compound": "CC(C)(C)N1CCC1C(N)=O (centres undefined)",
    "system-name": "UACC-257 melanoma",
    "growth / %": 96
  },
  {
    "compound": "COc1ccc(-c2nc3sccn3c2/C=C/C(=O)c2cc(F)cc(F)c2)cc1",
    "system-name": "UACC-257 melanoma",
    "growth / %": 101
  },
  {
    "compound": "CCCCCCCCCCCCCCCCCCNC(=O)[C@H]1CSC(c2cccs2)N1 (some centres undefined)",
    "system-name": "UACC-257 melanoma",
    "growth / %": -17.7
  }
]

src = PubChem BioAssay (NCI)
